Cited source for all entries: patent US9884839B2

# assayed_target: human 17β-HSD2 (Homo sapiens)
# Construct: 17β-HSD2 was obtained from the microsomal fraction; from tissue; host or cells: human placenta, microsomal fraction
# Sequence (P37059 whole entry): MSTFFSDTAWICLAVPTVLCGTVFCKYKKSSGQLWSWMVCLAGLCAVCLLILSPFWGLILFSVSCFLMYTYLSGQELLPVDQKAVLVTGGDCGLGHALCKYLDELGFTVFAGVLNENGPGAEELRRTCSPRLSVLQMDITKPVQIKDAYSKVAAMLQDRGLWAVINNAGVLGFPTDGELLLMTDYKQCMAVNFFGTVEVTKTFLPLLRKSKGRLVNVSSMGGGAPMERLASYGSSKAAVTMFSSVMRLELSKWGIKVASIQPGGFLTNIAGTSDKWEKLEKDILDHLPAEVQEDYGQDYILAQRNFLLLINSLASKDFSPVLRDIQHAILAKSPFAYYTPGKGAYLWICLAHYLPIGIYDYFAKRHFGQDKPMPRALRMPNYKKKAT
# assay_procedure: Inhibition of human 17β-HSD2 (conversion of [3H]-E2 to E1)
# Type: biochemical
# condition_parameters: read-out: % inhibition h17β-HSD2 @ 10 nM
Decide using inhibition at 0.01 µM: a value greater than or equal to 60% is label 1, a smaller one is label 0.

| molecule | assigned_class |
| --- | --- |
| COc1cccc(-c2ccc(C(=O)c3cc(F)c(F)c(O)c3F)s2)c1 | label 0 |
| O=C(c1ccc(-c2cccc3[nH]ccc23)s1)c1cc(F)c(F)c(O)c1F | label 1 |
| Nc1cc(-c2ccc(C(=O)c3cc(F)c(F)c(O)c3F)s2)ccc1O | label 1 |

Kindly consider the entry below.
QUERY: Is inhibition at 0.01 µM at least 60%? Consider COc1ccc(-c2ccc(C(=O)c3cc(F)c(F)c(O)c3F)s2)cc1
RESULT: label 1
